- procedure_details: miR-122 suppressors via Renilla sensor increase, primary screen, cell-based, Huh7 psiCHECK-miR122, Renilla luciferase, single point (AID 623901);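 further: 0% = median of neutral control wells and 100% = median of positive control wells; higher luciferase signal means stronger suppression of miR-122 activity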
- assay_setup: 48 h, at 12.5 µM, stronger effect = higher value
Screen size: about 340,000 compounds; about 470 (0.14%) were called active. This excerpt belongs to a sample that is enriched for actives.
measurement_label: activation (%)
Return type: number; implicit unit %.

>>> observed_result("COc1ccc(OC)c(-n2cc3c(=O)n(C)c(=O)n(C)c3c2)c1")
-102
>>> observed_result("C[C@@H]1CN([C@H](C)CO)C(=O)c2cc(-c3cccc(F)c3)cnc2O[C@H]1CN(C)C(=O)Nc1ccccc1F")
-3.89

Moving on to another molecule below.
Q. For the molecule COc1ccc(CN2CCOC2=O)cc1OC , what activation is on record?
A. 44.5
